Measured values drawn from patent US8410153B2 for this set.

# Test system: fall armyworm (Spodoptera frugiperda)
# test_protocol: Test B: control of fall armyworm on corn (maize) plant, foliar spray
# Format: in vivo
# experimental_parameters: sprayed at 50 ppm
result_type: levels of control efficacy (20% or less feeding damage or 80% or more mortality)

INSERT INTO assay_data (compound, study_system, result) VALUES
  ('CCNC(=O)CNC(=O)c1ccc(C2=NOC(c3cc(Br)cc(C(F)(F)F)c3)(C(F)(F)F)C2)c2ccccc12 (racemic) [Compound 144]', 'fall armyworm (Spodoptera frugiperda)', 'very good to excellent'),
  ('CCNC(=O)C(C)NC(=O)c1ccc(C2=NOC(c3cc(Cl)cc(C(F)(F)F)c3)(C(F)(F)F)C2)c2ccccc12 (mixture of isomers) [Compound 126]', 'fall armyworm (Spodoptera frugiperda)', 'very good to excellent'),
  ('C[S+]([O-])CCNC(=O)c1ccc(C2=NOC(c3cc(Cl)cc(C(F)(F)F)c3)(C(F)(F)F)C2)c2ccccc12 (centres unmarked) [Compound 114]', 'fall armyworm (Spodoptera frugiperda)', 'very good to excellent'),
  ('CCC(CC)NC(=O)CNC(=O)c1ccc(C2=NOC(c3cc(Cl)cc(Cl)c3)(C(F)(F)F)C2)c2ccccc12 (centres unmarked) [Compound 25]', 'fall armyworm (Spodoptera frugiperda)', 'very good to excellent'),
  ('O=C(CNC(=O)c1ccc(C2=NOC(c3cc(Cl)cc(Cl)c3)(C(F)(F)F)C2)c2ccccc12)NCC(F)(F)C(F)(F)F (centres unmarked) [Compound 14]', 'fall armyworm (Spodoptera frugiperda)', 'very good to excellent'),
  ('CCCNC(=O)CNC(=O)c1ccc(C2=NOC(c3cc(Cl)cc(C(F)(F)F)c3)(C(F)(F)F)C2)c2ccccc12 (centres unmarked) [Compound 117]', 'fall armyworm (Spodoptera frugiperda)', 'very good to excellent'),
  ('O=C(CNC(=O)c1ccc(C2=NOC(c3cc(Cl)cc(OC(F)(F)F)c3)(C(F)(F)F)C2)c2ccccc12)NCC(F)(F)F (racemic) [Compound 136]', 'fall armyworm (Spodoptera frugiperda)', 'very good to excellent'),
  ('CC(C)(O)CNC(=O)c1ccc(C2=NOC(c3cccc(C(F)(F)F)c3)(C(F)(F)F)C2)c2ccccc12 (racemic) [Compound 43]', 'fall armyworm (Spodoptera frugiperda)', 'very good to excellent'),
  ('CC(NC(=O)CNC(=O)c1ccc(C2=NOC(c3cc(C(F)(F)F)cc(C(F)(F)F)c3)(C(F)(F)F)C2)c2ccccc12)C(F)(F)F (centres unmarked) [Compound 91]', 'fall armyworm (Spodoptera frugiperda)', 'very good to excellent'),
  ('CNC(=O)C(C)NC(=O)c1ccc(C2=NOC(c3cc(C(F)(F)F)cc(C(F)(F)F)c3)(C(F)(F)F)C2)c2ccccc12 (centres unmarked) [Compound 86]', 'fall armyworm (Spodoptera frugiperda)', 'very good to excellent'),
  ('CCNC(=O)CNC(=O)c1ccc(C2=NOC(c3cc(Cl)cc(Cl)c3)(C(F)(F)F)C2)c2ccccc12 (centres unmarked) [Compound 8]', 'fall armyworm (Spodoptera frugiperda)', 'very good to excellent'),
  ('O=C(NCCO)c1ccc(C2=NOC(c3cc(C(F)(F)F)cc(C(F)(F)F)c3)(C(F)(F)F)C2)c2ccccc12 (centres unmarked) [Compound 69]', 'fall armyworm (Spodoptera frugiperda)', 'very good to excellent'),
  ('CC(CO)NC(=O)c1ccc(C2=NOC(c3cc(Cl)cc(Cl)c3)(C(F)(F)F)C2)c2ccccc12 (mixture of isomers) [Compound 31]', 'fall armyworm (Spodoptera frugiperda)', 'very good to excellent'),
  ('CC(C)CNC(=O)CNC(=O)c1ccc(C2=NOC(c3cc(Cl)cc(C(F)(F)F)c3)(C(F)(F)F)C2)c2ccccc12 (centres unmarked) [Compound 118]', 'fall armyworm (Spodoptera frugiperda)', 'very good to excellent'),
  ('CCS(=O)(=O)CCNC(=O)c1ccc(C2=NOC(c3cc(C(F)(F)F)cc(C(F)(F)F)c3)(C(F)(F)F)C2)c2ccccc12 (centres unmarked) [Compound 99]', 'fall armyworm (Spodoptera frugiperda)', 'very good to excellent'),
  ('CSCC(C)NC(=O)c1ccc(C2=NOC(c3cc(Cl)cc(Cl)c3)(C(F)(F)F)C2)c2ccccc12 (centres unmarked) [Compound 30]', 'fall armyworm (Spodoptera frugiperda)', 'very good to excellent'),
  ('CCNC(=O)C(C)NC(=O)c1ccc(C2=NOC(c3cc(Br)cc(C(F)(F)F)c3)(C(F)(F)F)C2)c2ccccc12 (mixture of isomers) [Compound 142]', 'fall armyworm (Spodoptera frugiperda)', 'very good to excellent'),
  ('CNC(=O)CNC(=O)c1ccc(C2=NOC(c3cc(C(F)(F)F)cc(C(F)(F)F)c3)(C(F)(F)F)C2)c2ccccc12 (centres unmarked) [Compound 105]', 'fall armyworm (Spodoptera frugiperda)', 'very good to excellent'),
  ('CSCCC(C)NC(=O)c1ccc(C2=NOC(c3cc(Cl)cc(Cl)c3)(C(F)(F)F)C2)c2ccccc12 (centres unmarked) [Compound 26]', 'fall armyworm (Spodoptera frugiperda)', 'very good to excellent'),
  ('CC(C)(C)NC(=O)CNC(=O)c1ccc(C2=NOC(c3cc(Cl)cc(Cl)c3)(C(F)(F)F)C2)c2ccccc12 (centres unmarked) [Compound 24]', 'fall armyworm (Spodoptera frugiperda)', 'very good to excellent'),
  ('CCNC(=O)CNC(=O)c1ccc(C2=NOC(c3cc(Cl)cc(C(F)(F)F)c3)(C(F)(F)F)C2)c2ccccc12 (centres unmarked) [Compound 119]', 'fall armyworm (Spodoptera frugiperda)', 'very good to excellent'),
  ('O=C(CNC(=O)c1ccc(C2=NOC(c3cc(Cl)c(Cl)c(Cl)c3)(C(F)(F)F)C2)c2ccccc12)NCC(F)(F)F (centres unmarked) [Compound 19]', 'fall armyworm (Spodoptera frugiperda)', 'very good to excellent'),
  ('CCNC(=O)C(C)NC(=O)c1ccc(C2=NOC(c3cc(C(F)(F)F)cc(C(F)(F)F)c3)(C(F)(F)F)C2)c2ccccc12 (centres unmarked) [Compound 88]', 'fall armyworm (Spodoptera frugiperda)', 'very good to excellent'),
  ('CCSCCNC(=O)c1ccc(C2=NOC(c3cc(C(F)(F)F)cc(C(F)(F)F)c3)(C(F)(F)F)C2)c2ccccc12 (centres unmarked) [Compound 92]', 'fall armyworm (Spodoptera frugiperda)', 'very good to excellent'),
  ('O=C(CNC(=O)c1ccc(C2=NOC(c3cc(Br)cc(C(F)(F)F)c3)(C(F)(F)F)C2)c2ccccc12)NCC(F)(F)F (racemic) [Compound 52]', 'fall armyworm (Spodoptera frugiperda)', 'very good to excellent'),
  ('CSCCNC(=O)c1ccc(C2=NOC(c3cc(Cl)c(Cl)c(Cl)c3)(C(F)(F)F)C2)c2ccccc12 (centres unmarked) [Compound 15]', 'fall armyworm (Spodoptera frugiperda)', 'very good to excellent');
